The entries below come with measured yeast fitness (ln) values attached.
B1: tRNA (parent)
chain: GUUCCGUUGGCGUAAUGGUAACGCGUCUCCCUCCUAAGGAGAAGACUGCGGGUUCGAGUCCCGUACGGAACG

Variants of: B1
test summary: yeast fitness, log relative to wild type (ln ratio); higher = fitter; tRNA-Arg(CCU), competitive growth, 37 C, 1 M NaCl

seq string | yeast fitness (ln)
AUUCCGUUGGCGUAAUGGUAACGCGUUUCCCUCCUAAGGAGAAGAUUGCGGGUUCGAGUCCCGUACGGAGUG | -0.0653
AUUCCGUUGGCGUAAUGGUAACGCGUCUCCCUCCUAAGGAGACGAUUGCGGGUUCGAGUCCCGUAUGGAUCG | -0.124
AGUCCGUUGGCGUAAUGGUAACGCGUCUCCCUCCUAAGGAGAAGACUGCGGGUUCGAGUCCCGUACGGAGCG | -0.0928
GUUCCAUUGGCGUAAUGGUAACGCGUUUCCCUCCUAAGGAGACGACUGCGGGUUCGAGUCCCGUAAGGAGUG | -0.325
GGUCCUUUGGCGUAAUGGUAACGCGUUUCCCUCCUAAGGAGAAGAUUGCGGGUUCGAGUCCCGUAUGGAACG | -0.147
AUUCCGUUGGCGUAAUGGUAACGCGUCUCCCUCCUAAGGAGACGACUGCGGGUUCGAGUCCCGUACGGAGCG | -0.159
GUUCCAUUGGCGUAAUGGUAACGCGUCUCCCUCCUAAGGAGACGACUGCGGGUUCGAGUCCCGUAUGGGAUG | -0.51
GCUCCAUUGGCGUAAUGGUAACGCGUUUCCCUCCUAAGGAGAAGAUUGCGGGUUCGAGUCCCGUAUGGAGUG | -0.0332
GUUCCGUUGGCGUAAUGGUAACGCGUUUCCCUCCUAAGGAGAAGACUGCGGGUUCGAGUCCCGUAAGGGGCG | -0.25
AGUCCAUUGGCGUAAUGGUAACGCGUUUCCCUCCUAAGGAGACGAUUGCGGGUUCGAGUCCCGUAUGGGGCG | -0.34
GGUCCGUUGGCGUAAUGGUAACGCGUUUCCCUCCUAAGGAGACGACUGCGGGUUCGAGUCCCGUAUGGGGUG | -0.402
GUUCCGUUGGCGUAAUGGUAACGCGUCUCCCUCCUAAGGAGACGAUUGCGGGUUCGAGUCCCGUACGGGACG | 0.00452
AUUCCAUUGGCGUAAUGGUAACGCGUCUCCCUCCUAAGGAGACGAUUGCGGGUUCGAGUCCCGUAUGGAACG | -0.295
GUUCCGUUGGCGUAAUGGUAACGCGUCUCCCUCCUAAGGAGACGAUUGCGGGUUCGAGUCCCGUAUGGGUCG | -0.121
GUUCCGUUGGCGUAAUGGUAACGCGUCUCCCUCCUAAGGAGACGACUGCGGGUUCGAGUCCCGUAUGGGGUG | -0.22
GUUCCGUUGGCGUAAUGGUAACGCGUCUCCCUCCUAAGGAGAAGAUUGCGGGUUCGAGUCCCGUAUGGAGUG | -0.0752
ACUCCAUUGGCGUAAUGGUAACGCGUUUCCCUCCUAAGGAGAAGAUUGCGGGUUCGAGUCCCGUACGGAACG | -0.0428
GCUCCAUUGGCGUAAUGGUAACGCGUUUCCCUCCUAAGGAGAAGAUUGCGGGUUCGAGUCCCGUACGGAUUG | -0.123
GCUCCGUUGGCGUAAUGGUAACGCGUCUCCCUCCUAAGGAGAAGACUGCGGGUUCGAGUCCCGUACGGGUCG | -0.117
GUUCCGUUGGCGUAAUGGUAACGCGUUUCCCUCCUAAGGAGAAGAUUGCGGGUUCGAGUCCCGUAUGGAUCG | -0.0808
AUUCCGUUGGCGUAAUGGUAACGCGUCUCCCUCCUAAGGAGACGAUUGCGGGUUCGAGUCCCGUAAGGGGUG | -0.191
GGUCCGUUGGCGUAAUGGUAACGCGUCUCCCUCCUAAGGAGAAGAUUGCGGGUUCGAGUCCCGUAAGGAUUG | -0.0966
AUUCCGUUGGCGUAAUGGUAACGCGUUUCCCUCCUAAGGAGAAGAUUGCGGGUUCGAGUCCCGUACGGAUCG | -0.088
GCUCCUUUGGCGUAAUGGUAACGCGUCUCCCUCCUAAGGAGACGAUUGCGGGUUCGAGUCCCGUACGGGGCG | -0.3
AUUCCUUUGGCGUAAUGGUAACGCGUCUCCCUCCUAAGGAGAAGACUGCGGGUUCGAGUCCCGUACGGGUCG | -0.131
GCUCCGUUGGCGUAAUGGUAACGCGUCUCCCUCCUAAGGAGACGACUGCGGGUUCGAGUCCCGUACGGGACG | -0.0815
GCUCCGUUGGCGUAAUGGUAACGCGUCUCCCUCCUAAGGAGACGACUGCGGGUUCGAGUCCCGUACGGGGUG | -0.0143
GGUCCAUUGGCGUAAUGGUAACGCGUUUCCCUCCUAAGGAGAAGACUGCGGGUUCGAGUCCCGUAUGGAUUG | -0.364
AUUCCAUUGGCGUAAUGGUAACGCGUUUCCCUCCUAAGGAGAAGAUUGCGGGUUCGAGUCCCGUAUGGGUCG | -0.468
GGUCCUUUGGCGUAAUGGUAACGCGUCUCCCUCCUAAGGAGACGAUUGCGGGUUCGAGUCCCGUAUGGGGUG | -0.348
GGUCCGUUGGCGUAAUGGUAACGCGUUUCCCUCCUAAGGAGAAGACUGCGGGUUCGAGUCCCGUAAGGGUCG | -0.155
GUUCCUUUGGCGUAAUGGUAACGCGUUUCCCUCCUAAGGAGAAGACUGCGGGUUCGAGUCCCGUAAGGGAUG | -0.806
GUUCCGUUGGCGUAAUGGUAACGCGUCUCCCUCCUAAGGAGAAGAUUGCGGGUUCGAGUCCCGUAUGGAGCG | -0.0429
GUUCCGUUGGCGUAAUGGUAACGCGUUUCCCUCCUAAGGAGACGACUGCGGGUUCGAGUCCCGUAUGGAACG | -0.216
GUUCCAUUGGCGUAAUGGUAACGCGUUUCCCUCCUAAGGAGAAGAUUGCGGGUUCGAGUCCCGUAAGGGGUG | -0.221
ACUCCGUUGGCGUAAUGGUAACGCGUCUCCCUCCUAAGGAGACGAUUGCGGGUUCGAGUCCCGUAUGGGGUG | -0.417
AUUCCAUUGGCGUAAUGGUAACGCGUCUCCCUCCUAAGGAGACGACUGCGGGUUCGAGUCCCGUACGGGUCG | -0.224
AUUCCGUUGGCGUAAUGGUAACGCGUCUCCCUCCUAAGGAGACGACUGCGGGUUCGAGUCCCGUAAGGAGCG | -0.19
